Biological target: human M4 muscarinic acetylcholine receptor (Homo sapiens)
Construct: expressed in transfected cells
Sequence (P08173 1-479): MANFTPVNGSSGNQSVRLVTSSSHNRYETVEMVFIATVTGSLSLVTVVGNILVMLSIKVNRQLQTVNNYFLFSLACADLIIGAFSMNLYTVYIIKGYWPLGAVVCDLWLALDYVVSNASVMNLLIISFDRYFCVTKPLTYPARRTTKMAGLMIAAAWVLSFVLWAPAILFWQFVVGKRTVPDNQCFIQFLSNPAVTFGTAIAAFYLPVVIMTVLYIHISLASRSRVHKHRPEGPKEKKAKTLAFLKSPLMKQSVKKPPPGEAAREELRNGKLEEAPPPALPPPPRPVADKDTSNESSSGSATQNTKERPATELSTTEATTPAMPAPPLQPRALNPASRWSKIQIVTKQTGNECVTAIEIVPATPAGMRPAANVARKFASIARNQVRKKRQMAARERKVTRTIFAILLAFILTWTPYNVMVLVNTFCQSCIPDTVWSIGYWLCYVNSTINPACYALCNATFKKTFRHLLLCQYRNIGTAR
Assay: human FLIPR-based M4 PAM assay (CHO-K1 cells with human M4 receptor and Gαqi5, calcium dye fluorescence)
Type: cell-based
Conditions: inflection point of 4 parameter logistic fit; acetylcholine added at 20% of maximum response; read-out: M4PAM IP
pEC50: −log10 of the molar value.
The following molecules are shown together with reported pEC50 values.
measure: pEC50

molecule: CC(C)(Cn1cc(-c2ccc(C#N)nc2-c2ccn3ccnc3c2)cn1)C(F)(F)F
assayResult: 7.55
--
molecule: CC(C)CCn1cc(-c2ccc(Cl)nc2-c2ccc3c(c2)C(=O)NC3)cn1
assayResult: 7.40
--
molecule: Cc1cn2ncc(-c3nc(C#N)ccc3-c3cnn(CC(C)(C)C)c3)cc2n1
assayResult: 7.16
--
molecule: CCC1(Cn2cc(-c3ccc(C#N)nc3-c3ccn4ccnc4c3)cn2)CC1
assayResult: 7.84
--
molecule: Cc1cn2ccc(-c3nc(C#N)ccc3-c3cnn(CC(C)(O)C(F)(F)F)c3)cc2n1 (centres unmarked)
assayResult: 6.79
--
molecule: Cc1nc2cc(-c3nc(C#N)ccc3-c3cnn(CC(C)(C)C)c3)ccn2n1
assayResult: 7.33
--
molecule: Cc1ccc(-c2cnn(CC3(C)CCCCC3)c2)c(-c2ccc3c(C)n[nH]c3c2)n1
assayResult: 7.16
--
molecule: Cc1ccc(-c2cnn(CC(C)C)c2)c(-c2ccc3c(c2)C(=O)N(C2CC2)C3)n1
assayResult: 6.71

###

target: human M4 muscarinic acetylcholine receptor (Homo sapiens, UniProt P08173); construct: expressed in transfected cells; assay: human FLIPR-based M4 PAM assay (CHO-K1 cells with human M4 receptor and Gαqi5, calcium dye fluorescence); assay type: cell-based; conditions: inflection point of 4 parameter logistic fit; acetylcholine added at 20% of maximum response; read-out: M4PAM IP
Decision: EC50 beneath 100 nM gives true (1); EC50 meeting or exceeding 100 nM gives false (0).

compound: Cc1nc2cc(-c3nc(C#N)ccc3-c3cnn(CC(C)(F)C(C)(F)F)c3)ccc2n1C (centres unmarked)
studyTarget: human M4 muscarinic acetylcholine receptor (Homo sapiens, UniProt P08173)
classAssignment: true (1)

compound: CC1(Cn2cc(-c3ccc(C#N)nc3-c3ccn4ccnc4c3)cn2)CCOC1 (racemic)
studyTarget: human M4 muscarinic acetylcholine receptor (Homo sapiens, UniProt P08173)
classAssignment: true (1)

compound: Cc1cn2ccc(-c3nc(C#N)ccc3-c3cnn(CC(C)(F)F)c3)cc2n1
studyTarget: human M4 muscarinic acetylcholine receptor (Homo sapiens, UniProt P08173)
classAssignment: false (0)

compound: Cc1nc2cc(-c3nc(C#N)ccc3-c3cnn(CC4(C(F)(F)F)CC4)c3)ccc2o1
studyTarget: human M4 muscarinic acetylcholine receptor (Homo sapiens, UniProt P08173)
classAssignment: false (0)

compound: C#Cc1ccc(-c2cnn(CC(C)(C)C)c2)c(-c2ccn3cc(C)nc3c2)n1
studyTarget: human M4 muscarinic acetylcholine receptor (Homo sapiens, UniProt P08173)
classAssignment: true (1)

compound: Cc1ccc(-c2cnn(CC3CCC(F)(F)CC3)c2)c(-c2ccc3c(c2)C(=O)N(CC2CC2)C3)n1
studyTarget: human M4 muscarinic acetylcholine receptor (Homo sapiens, UniProt P08173)
classAssignment: true (1)

compound: Cc1cn2ccc(-c3nc(C#N)ccc3-c3cnn(CCC(C)(C)F)c3)cc2n1
studyTarget: human M4 muscarinic acetylcholine receptor (Homo sapiens, UniProt P08173)
classAssignment: true (1)

compound: CC(C)(C)Cn1ncc(-c2ccc(C#N)nc2-c2ccn3ccnc3c2)c1F
studyTarget: human M4 muscarinic acetylcholine receptor (Homo sapiens, UniProt P08173)
classAssignment: true (1)
